What MIC was measured for each of the following?
Test system: Mycobacterium avium
Conditions: isolate MAV1

Kindly indicate its recorded MIC. Item: `CN(C)CCCN1c2ccccc2Sc2ccc(Cl)cc21`
< 0.195 µg/mL

Provide one value: measured MIC of `CCCOc1ccc(-c2cn(CCN3CCCCC3)c3ccccc3c2=O)cc1`
< 0.195 µg/mL

Determine from records and report MIC for `CCCOc1ccc(-c2cn(CCN(CC)CC)c3ccccc3c2=O)cc1`
3.12 µg/mL

Look up and report measured MIC for this entry: `CCCOc1ccc(-c2cn(CCN3CCCCCC3)c3ccccc3c2=O)cc1`
< 0.195 µg/mL

Input CSc1ccc2c(c1)N(CCC1CCCCN1C)c1ccccc1S2 (stereo not given) , output reported MIC.
< 0.195 µg/mL
